FYI, the data here is from patent US20240269158A1.

Each item that follows carries a reported MBC.
System: intracellular B. henselae in DH82 cells
Assay: DH82 cell-based MBC assay (coculture)
Design: species or system Bartonella henselae (canine DH82 cells)
Conditions: Bartonella henselae; B. henselae; DH82 cell-based assay; 96 hours; read-out: MBC
Procedure: DH82 are a canine cell line having a macrophage-like morphology. Cells were initially cultured in T75-Flasks (Corning, 430641U) until confluency was reached and were split at a ratio of 1:4 for every 2-3 days. […] After 48 hrs of incubation, the media was removed from the cells and the therapeutic agents that were diluted in EMEM+15% FBS was added. […] The bactericidal activity of the therapeutic agents were then evaluated by plating the lysed cells on blood agar plates. […]

Check out these entries, answers already filled in.
- CHEMICAL_STRING: "CC1(C)S[C@@H]2[C@H](NC(=O)[C@H](NC(=O)N3CCNC3=O)c3ccccc3)C(=O)N2[C@H]1C(=O)O"
  MBC: "> 16 µg/mL"
- CHEMICAL_STRING: "C[C@H]1c2cccc(O)c2C(=O)C2=C(O)[C@]3(O)C(=O)C(C(N)=O)=C(O)[C@@H](N(C)C)[C@@H]3[C@@H](O)[C@@H]21"
  MBC: "> 16 µg/mL"
- CHEMICAL_STRING: "CC1(C)S[C@@H]2[C@H](NC(=O)[C@H](N)c3ccccc3)C(=O)N2[C@H]1C(=O)O"
  MBC: "> 16 µg/mL"
- CHEMICAL_STRING: "CO/N=C(\\C(=O)N[C@@H]1C(=O)N2C(C(=O)O)=C(CSc3nc(=O)c(=O)[nH]n3C)CS[C@H]12)c1csc(N)n1"
  MBC: "> 16 µg/mL"

Exam item: Can you look up the measured MBC of CC[C@H]1OC(=O)[C@H](C)[C@@H](O[C@H]2C[C@@](C)(OC)[C@@H](O)[C@H](C)O2)[C@H](C)[C@@H](O[C@@H]2O[C@H](C)C[C@H](N(C)C)[C@H]2O)[C@](C)(O)C[C@@H](C)CN(C)[C@H](C)[C@@H](O)[C@]1(C)O for me?
Marked response: > 16 µg/mL

----------
Listing of recorded MIC by entry.
test system: B. henselae; assay: MIC assay in liquid culture media (OD600); assay type: cell-based, Bartonella henselae; settings: Bartonella henselae, Schneider's insect medium, read-out: MIC

- CHEMICAL_STRING: "C[C@H]1c2cccc(O)c2C(=O)C2=C(O)[C@]3(O)C(=O)C(C(N)=O)=C(O)[C@@H](N(C)C)[C@@H]3[C@@H](O)[C@@H]21"
  ASSAYED_SYSTEM: "B. henselae"
  MEASURED: "> 0.3 µg/mL"
- CHEMICAL_STRING: "CO/N=C(\\C(=O)N[C@@H]1C(=O)N2C(C(=O)O)=C(CSc3nc(=O)c(=O)[nH]n3C)CS[C@H]12)c1csc(N)n1"
  ASSAYED_SYSTEM: "B. henselae"
  MEASURED: "> 0.3 µg/mL"
- CHEMICAL_STRING: "CC[C@H]1OC(=O)[C@H](C)[C@@H](O[C@H]2C[C@@](C)(OC)[C@@H](O)[C@H](C)O2)[C@H](C)[C@@H](O[C@@H]2O[C@H](C)C[C@H](N(C)C)[C@H]2O)[C@](C)(O)C[C@@H](C)CN(C)[C@H](C)[C@@H](O)[C@]1(C)O"
  ASSAYED_SYSTEM: "B. henselae"
  MEASURED: "> 0.02 µg/mL"

Exam item: Would you kindly share the measured MIC for CC1(C)S[C@@H]2[C@H](NC(=O)[C@H](NC(=O)N3CCNC3=O)c3ccccc3)C(=O)N2[C@H]1C(=O)O ?
Marked response: > 2 µg/mL
